Value source: patent US20250197451A1

The binders listed here are annotated with their Intensity (%).
target: T1, biotin-labelled EZH2 protein (UniProt Q15910 1-746, limits assumed, biotin label (EZ-link NHS-PEO4-Biotinylation kit)); assay: KDM2B peptide array probed with biotin-EZH2 1 ug/ml, SA-HRP/ECL; Remark: noise;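 note: 100% is the highest background-corrected spot optical density on the membrane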
T1 construct: Probe in solution (1 ug/ml) on the KDM2B peptide microarray; also called NHS-PEO4-Biotinylation-labelled EZH2 protein; recombinant protein
T1 sequence (Q15910 whole entry): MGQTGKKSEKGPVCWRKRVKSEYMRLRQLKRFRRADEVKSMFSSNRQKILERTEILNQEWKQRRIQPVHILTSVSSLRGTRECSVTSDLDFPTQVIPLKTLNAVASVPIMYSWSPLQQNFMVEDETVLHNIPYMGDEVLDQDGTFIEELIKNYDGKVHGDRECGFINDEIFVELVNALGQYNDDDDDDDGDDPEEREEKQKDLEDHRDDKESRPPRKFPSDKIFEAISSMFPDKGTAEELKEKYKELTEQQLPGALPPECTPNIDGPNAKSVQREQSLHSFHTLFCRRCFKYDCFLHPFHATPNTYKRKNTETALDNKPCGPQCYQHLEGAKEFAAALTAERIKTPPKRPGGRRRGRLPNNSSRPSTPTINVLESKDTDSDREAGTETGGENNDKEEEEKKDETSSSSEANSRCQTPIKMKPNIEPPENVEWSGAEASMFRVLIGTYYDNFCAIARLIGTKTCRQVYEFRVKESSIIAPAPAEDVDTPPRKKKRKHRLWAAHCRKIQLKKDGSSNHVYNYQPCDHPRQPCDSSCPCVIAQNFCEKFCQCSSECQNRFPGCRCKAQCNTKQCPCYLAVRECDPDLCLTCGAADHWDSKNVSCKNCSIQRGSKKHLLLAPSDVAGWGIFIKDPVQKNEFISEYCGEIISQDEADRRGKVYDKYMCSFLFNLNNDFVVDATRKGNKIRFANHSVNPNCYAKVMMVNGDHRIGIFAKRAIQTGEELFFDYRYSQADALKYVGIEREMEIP
quantity.name: Intensity (%)

binder: RGFSLEEKLRSQLYQ [peptide 14]
quantity.name: Intensity (%)
reported.measurement: 0.07
--
binder: KSITPLMLSGIIRRQ [peptide 223]
quantity.name: Intensity (%)
reported.measurement: 0
--
binder: KRASSLQTSPGSSSH [peptide 164]
quantity.name: Intensity (%)
reported.measurement: 0.34
--
binder: NAIAEMKYPKVKKYC [peptide 44]
quantity.name: Intensity (%)
reported.measurement: 0
--
binder: TQEYQRESMLIDAPR [peptide 77]
quantity.name: Intensity (%)
reported.measurement: 0
--
binder: ETPEAQRDKLYNVIS [peptide 33]
quantity.name: Intensity (%)
reported.measurement: 0
--
binder: FVRYYETPEAQRDKL [peptide 32]
quantity.name: Intensity (%)
reported.measurement: 0
